biological target: PI3K-gamma (Homo sapiens, UniProt P48736); assay: PI3K-gamma fluorescence polarization assay; type: biochemical; conditions: PI3Kγ Avg. IC50
Sequence (P48736 whole entry, species assumed): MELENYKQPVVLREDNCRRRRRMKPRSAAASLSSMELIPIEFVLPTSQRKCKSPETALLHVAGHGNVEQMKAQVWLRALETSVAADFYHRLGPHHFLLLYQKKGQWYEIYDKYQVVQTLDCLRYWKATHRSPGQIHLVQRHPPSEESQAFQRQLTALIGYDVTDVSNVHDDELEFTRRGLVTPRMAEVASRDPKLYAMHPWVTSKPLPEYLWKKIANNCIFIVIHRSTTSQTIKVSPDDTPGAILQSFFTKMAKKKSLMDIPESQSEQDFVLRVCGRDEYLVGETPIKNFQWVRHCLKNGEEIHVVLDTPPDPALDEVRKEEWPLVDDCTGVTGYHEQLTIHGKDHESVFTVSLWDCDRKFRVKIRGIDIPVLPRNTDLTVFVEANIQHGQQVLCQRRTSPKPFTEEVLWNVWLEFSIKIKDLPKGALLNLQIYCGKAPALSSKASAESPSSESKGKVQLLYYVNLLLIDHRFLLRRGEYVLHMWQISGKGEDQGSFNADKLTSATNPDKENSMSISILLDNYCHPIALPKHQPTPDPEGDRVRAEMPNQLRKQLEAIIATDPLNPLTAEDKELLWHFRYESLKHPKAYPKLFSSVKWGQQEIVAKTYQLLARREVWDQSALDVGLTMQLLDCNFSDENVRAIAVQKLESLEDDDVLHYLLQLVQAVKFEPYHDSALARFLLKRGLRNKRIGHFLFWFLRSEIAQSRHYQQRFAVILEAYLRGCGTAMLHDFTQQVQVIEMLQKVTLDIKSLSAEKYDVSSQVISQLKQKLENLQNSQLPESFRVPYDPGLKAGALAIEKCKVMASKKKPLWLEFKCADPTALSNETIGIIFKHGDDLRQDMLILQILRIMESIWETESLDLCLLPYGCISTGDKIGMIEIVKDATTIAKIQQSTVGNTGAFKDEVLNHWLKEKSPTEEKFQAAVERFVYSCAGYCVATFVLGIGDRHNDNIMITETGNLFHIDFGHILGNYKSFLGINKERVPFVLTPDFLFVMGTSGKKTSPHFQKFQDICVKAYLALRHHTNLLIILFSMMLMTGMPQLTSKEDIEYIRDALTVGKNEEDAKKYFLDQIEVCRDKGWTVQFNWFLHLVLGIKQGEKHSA
pIC50: −log10 of the molar value.
readout_type: pIC50

Use the examples below as a reference point.
[[record]]
cpd_smiles = "CCn1c(C2CCCCC2)c(/C=C2\\Oc3ccc(NC(=O)Nc4ccc(C(=O)N5CCN(C)CC5)cc4)cc3C2=O)c2cc(OC)ccc21"
reported_measurement = 7.26

[[record]]
cpd_smiles = "COc1ccc2c(c1)c(/C=C1\\Oc3cc(O)cc(F)c3C1=O)c(C)n2CCN1CCN(C)CC1"
reported_measurement = 6.63

[[record]]
cpd_smiles = "COc1cc(-c2cncnc2)c2c(c1)c(/C=C1\\Oc3cc(O)ccc3C1=O)cn2CCCC#N"
reported_measurement = 5.15


1 = CNC(=O)Nc1ccc2c(c1)C(=O)/C(=C/c1cn(CCN3CCN(C)CC3)c3ccc(OC)cc13)O2
2 = CNC(=O)Nc1ccc2c(c1)C(=O)/C(=C/c1c(-c3cnn(CC(C)C)c3)[nH]c3ccc(OC)cc13)O2
3 = COc1ccc2c(c1)c(C=C1Oc3cc(O)cc(O)c3C1=O)c(C)n2CCCCN(C)C
Q) Task field, ranking: reported pIC50, descending order. Dear reader, please state the labels in the requested order.
A) 2, 3, 1

A = CNC(=O)Nc1ccc2c(c1)C(=O)/C(=C/c1c(-c3c(C)nn(C)c3C)[nH]c3c(C(F)(F)F)cc(OC)cc13)O2
B = COc1cc(/C=C/CN2CCCCC2)c2[nH]cc(/C=C3\Oc4cc(O)ccc4C3=O)c2c1
Q) Of A and B , which one carries the higher reported pIC50? Your choice should be expressed through its label.
A) A
(A: 7.13, B: 5.72)

* * *

target: PI3K-alpha (Homo sapiens, UniProt P42336); assay: PI3K-alpha fluorescence polarization assay; format: biochemical; settings: read-out: PI3Kα Avg. IC50
Sequence (P42336 whole entry, species assumed): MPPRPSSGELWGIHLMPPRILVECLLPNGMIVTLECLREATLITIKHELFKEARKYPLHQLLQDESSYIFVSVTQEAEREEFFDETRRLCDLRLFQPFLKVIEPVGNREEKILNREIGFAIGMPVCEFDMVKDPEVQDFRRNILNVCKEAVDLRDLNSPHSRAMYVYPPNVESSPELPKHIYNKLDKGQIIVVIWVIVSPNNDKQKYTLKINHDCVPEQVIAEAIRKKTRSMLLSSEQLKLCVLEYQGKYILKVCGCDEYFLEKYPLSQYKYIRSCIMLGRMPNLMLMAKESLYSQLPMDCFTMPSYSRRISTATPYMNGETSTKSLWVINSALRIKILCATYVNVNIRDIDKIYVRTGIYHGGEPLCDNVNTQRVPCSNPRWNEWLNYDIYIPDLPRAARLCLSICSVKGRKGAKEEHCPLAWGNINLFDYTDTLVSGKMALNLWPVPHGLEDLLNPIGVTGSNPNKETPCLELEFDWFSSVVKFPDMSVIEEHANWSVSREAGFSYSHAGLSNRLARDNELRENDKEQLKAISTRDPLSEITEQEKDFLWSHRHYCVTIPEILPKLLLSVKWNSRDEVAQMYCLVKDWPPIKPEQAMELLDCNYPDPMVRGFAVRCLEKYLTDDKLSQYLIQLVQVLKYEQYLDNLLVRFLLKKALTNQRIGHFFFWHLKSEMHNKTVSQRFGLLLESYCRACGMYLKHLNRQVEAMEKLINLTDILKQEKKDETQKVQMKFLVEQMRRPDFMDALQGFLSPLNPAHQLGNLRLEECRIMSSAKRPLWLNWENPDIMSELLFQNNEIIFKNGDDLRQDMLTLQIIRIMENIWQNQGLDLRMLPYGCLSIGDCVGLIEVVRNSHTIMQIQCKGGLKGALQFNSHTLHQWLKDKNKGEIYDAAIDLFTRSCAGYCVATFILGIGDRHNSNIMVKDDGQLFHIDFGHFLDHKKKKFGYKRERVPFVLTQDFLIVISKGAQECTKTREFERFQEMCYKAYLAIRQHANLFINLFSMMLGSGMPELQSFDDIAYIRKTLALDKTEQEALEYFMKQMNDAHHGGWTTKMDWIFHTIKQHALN
Sequence (P27986 whole entry partner, species assumed): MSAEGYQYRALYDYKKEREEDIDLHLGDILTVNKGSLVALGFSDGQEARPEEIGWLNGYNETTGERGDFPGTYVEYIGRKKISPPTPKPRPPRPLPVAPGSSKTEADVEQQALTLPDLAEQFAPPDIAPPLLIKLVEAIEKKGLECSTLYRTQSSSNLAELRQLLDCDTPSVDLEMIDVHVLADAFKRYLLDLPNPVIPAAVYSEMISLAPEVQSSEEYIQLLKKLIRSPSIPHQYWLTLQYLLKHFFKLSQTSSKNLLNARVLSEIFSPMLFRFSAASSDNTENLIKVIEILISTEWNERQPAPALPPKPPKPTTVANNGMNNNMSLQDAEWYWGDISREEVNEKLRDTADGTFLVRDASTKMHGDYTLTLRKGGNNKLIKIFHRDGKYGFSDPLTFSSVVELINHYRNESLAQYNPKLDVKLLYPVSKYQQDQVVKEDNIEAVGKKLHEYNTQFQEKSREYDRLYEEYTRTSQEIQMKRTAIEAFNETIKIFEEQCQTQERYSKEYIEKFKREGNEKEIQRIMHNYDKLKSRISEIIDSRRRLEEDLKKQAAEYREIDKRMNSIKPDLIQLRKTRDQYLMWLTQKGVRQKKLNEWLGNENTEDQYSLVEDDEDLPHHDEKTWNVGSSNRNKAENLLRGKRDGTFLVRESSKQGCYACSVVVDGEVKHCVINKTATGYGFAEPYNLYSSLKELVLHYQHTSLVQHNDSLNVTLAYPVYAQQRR
readout_type: IC50 (nM)

Use the examples below as a reference point.
[[record]]
molecule = "CN(C)CCn1c(-c2ccccc2)c(C=C2Oc3cc(O)cc(O)c3C2=O)c2ccccc21 [Example 148]"
readout_type = "IC50"
reported_measurement = 2680

[[record]]
molecule = "CS(=O)(=O)c1ccc2c(C=C3Oc4cc(O)cc(O)c4C3=O)c[nH]c2c1 [Example 169]"
readout_type = "IC50"
reported_measurement = 3590

[[record]]
molecule = "COc1ccc2c(c1)c(C=C1Oc3cc(O)cc(O)c3C1=O)c(C)n2CCCN1CCN(CCO)CC1 [Example 103]"
readout_type = "IC50"
reported_measurement = 6.6


1 = COc1ccc2c(c1)c(/C=C1\Oc3ccc(NC(=O)NCCN(C)C)cc3C1=O)cn2CCN1CCN(C)CC1 [Compound 574]
2 = CNC(=O)Nc1ccc(-c2cccc3c2c(/C=C2\Oc4cc(O)cc(O)c4C2=O)cn3C)cc1 [Example 393]
3 = CNC(=O)Nc1ccc2c(c1)C(=O)/C(=C/c1c(-c3c(C)nn(CCN(C)C)c3C)[nH]c3ccc(OC)cc13)O2 [Compound 705]
Q) Task field, ranking: reported IC50, descending order. Dear reader, please state the labels in the requested order.
A) 2, 1, 3
(2: 608 nM, 1: 97.5 nM, 3: 5.5 nM)

a = COc1cc(-c2cncnc2)c2c(c1)c(/C=C1\Oc3cc(O)ccc3C1=O)cn2CCCC#N [Compound 501]
b = COc1ccc2c(c1)c(C=C1Oc3cccc(O)c3C1=O)c(C)n2CCCCl [Example 125]
Q) Of a and b , which one carries the higher reported IC50? Your choice should be expressed through its label.
A) a
(a: 701 nM, b: 380 nM)

A = CN1CCN(CCn2c(-c3ccccc3)c(C=C3Oc4cc(O)cc(O)c4C3=O)c3ccccc32)CC1 [Example 159]
B = Cn1cc(/C=C2\Oc3cc(O)cc(O)c3C2=O)c2c(-c3ccc(N4CCOCC4)nc3)cccc21 [Example 386]
Q) Of A and B , which one carries the higher reported IC50? Your choice should be expressed through its label.
A) A

A = COc1ccc2c(c1)c(/C=C1\Oc3cc(O)cc(O)c3C1=O)cn2CCN1CCC(O)C1 (centres unmarked) [Example 326]
B = NC(=O)Cn1c(-c2ccccc2)c(C=C2Oc3cc(O)cc(O)c3C2=O)c2ccccc21 [Example 161]
C = N#CCCCn1cc(C=C2Oc3cc(O)cc(O)c3C2=O)c2c(O)cccc21 [Example 257]
D = COc1ccc2c(c1)c(/C=C1\Oc3c(ccc(O)c3Cl)C1=O)c(C)n2CCN1CCN(C)CC1 [Example 451]
Q) Task field, ranking: reported IC50, descending order. Dear reader, please state the labels in the requested order.
A) B, D, C, A
